System: SK-OV-3 ovarian
Assay protocol: NCI tumour cell line growth inhibition, 48 h
Value type: GI50

O=S(=O)(NCCCNc1cc(-c2cn(-c3ccccc3)nc2-c2cccc(O)c2)ccn1)c1ccc(Cl)cc1; 2.35 µM
Cc1ccc(NC(=O)c2nc(S(C)=O)oc2-c2ccc(F)cc2)cc1Nc1nccc(-c2cccnc2)n1 (stereo not drawn); 10.5 µM
CC(C)[C@@H]1CC[C@@H]2[C@@H]1[C@H](OC(=O)/C=C/c1ccccc1)[C@]1(C(C)C)C[C@@H](OC(=O)CO)[C@@]2(C)O1; 10.3 µM
COC(=O)c1ccc(C2SCC(=O)N2NC(=O)C(O)c2ccccc2)cc1 (stereo not drawn); > 100 µM
C[n+]1ccc(-c2c3nc(c(-c4ccc5c(ccc[n+]5C)c4)c4ccc([nH]4)c(-c4cc[n+](C)cc4)c4nc(c(-c5ccc6c(ccc[n+]6C)c5)c5ccc2[nH]5)C=C4)C=C3)cc1; > 50 µM
COc1cc2c3c(n(CCCCl)c(=O)c2cc1OC)-c1ccc(C#N)cc1C3=O; 15.2 µM
COc1ccc(/C=C/C(=O)c2ccc(Nc3ccnc4cc(Cl)ccc34)cc2)cc1; > 100 µM
O=C(CN1CCN(c2ccc(Cl)cc2)CC1)N1CCN(c2nnc(-c3ccccc3)c(-c3ccccc3)n2)CC1; 75.7 µM

* * *

Test system: SNB-75 CNS
Assay protocol: NCI tumour cell line growth inhibition, 48 h; in the data active means GI50 below about 0.43 µM; inactive means the rest
Labels: y for active, n for inactive

O=C(Nc1ccc(Br)cc1F)c1cc(Br)ccc1O; n
O=c1cccc(C#CC#C/C=C/CO)o1; n
COc1ccc(-c2nocc2-c2cc(OC)c(OC)c(OC)c2)cc1; y
S=C(N/N=C(/c1ccccc1)c1ccccn1)Nc1cccc(Cl)c1; n
Oc1cc2ccccc2cc1-c1n[nH]c(=S)n1-c1ccc(Cl)cc1; n
COC(=O)c1ccc(C2SCC(=O)N2NC(=O)C(O)c2ccccc2)cc1 (stereo not drawn); n
O=C(CCl)Nc1ccc2c(c1)C(=O)c1ccc(NC(=O)CCl)cc1C2=O; n
Cc1ccc(S(=O)(=O)n2cc(-c3nnnn3-c3ccc(Cl)cc3)c(=O)c3ccccc32)cc1; n
CC[C@@]1(O)C(=O)OCc2c1cc1n(c2=O)Cc2c-1nc1ccccc1c2/C=N/OC(C)(C)C; y
O=C1c2cccnc2C(=O)c2c1c(C(=O)OCCN1CCOCC1)c1ccccn21; y
C[n+]1ccc(-c2c3nc(c(-c4ccc5c(ccc[n+]5C)c4)c4ccc([nH]4)c(-c4cc[n+](C)cc4)c4nc(c(-c5ccc6c(ccc[n+]6C)c5)c5ccc2[nH]5)C=C4)C=C3)cc1; n
CC([O-])C(=O)[O-].NCC1CCC1CN.[Pt+4] (stereo not drawn); n
C=C(CN1CCN(c2cccc(F)c2)CC1)c1ccc(C(=O)Nc2ccccc2N)cc1; n
Cc1nn(-c2ccc(Br)cc2)c(C)c1CC(=O)c1cc(O)ccc1O; n
CC(C)[C@@H]1CC[C@@H]2[C@@H]1[C@H](OC(=O)/C=C/c1ccccc1)[C@]1(C(C)C)C[C@@H](OC(=O)CO)[C@@]2(C)O1; n
COc1cc(OC)cc(-c2cncn2-c2ccc(-c3nc4cc(OC)c(OC)c(OC)c4s3)cc2)c1; n
Nc1c(C(=O)Nc2ccccc2)sc2nc3c(cc12)CCCC3; n
COc1cc(-c2cc(CCC(=O)Nc3ccccc3[N+](=O)[O-])n(-c3ccc([N+](=O)[O-])cc3[N+](=O)[O-])n2)ccc1O; n

* * *

System: DMS 273 small cell lung
Assay protocol: NCI tumour cell line growth inhibition, 48 h
Value type: TGI

C/C(=N/N)c1ccc2[nH]c3c(C)cc([N+](=O)[O-])c(C)c3c2c1; 17.4 µM
CCOC(=O)NC(=O)c1cn(CCSCCOC(=O)NCCCCCCNC(=O)OCCSCCn2cc(C(=O)NC(=O)OCC)c(=O)[nH]c2=O)c(=O)[nH]c1=O; > 100 µM
CCSc1nc2n(c(=S)n1)CCN2C; 33.6 µM
COC(=O)NN1C(C)=C(C(=O)OC)C2(CCOC2=O)C1(C)O (configuration not stated); > 100 µM
Cc1cc(NCCCCCCNc2cc(C)nc3ccc(Cl)cc23)c2cc(Cl)ccc2n1; 42.1 µM
COC(=O)NN1C(=O)C(=P(c2ccccc2)(c2ccccc2)c2ccccc2)C(C(=O)OC)=C1C; > 100 µM
BrC12c3ccccc3Sc3ccccc3C1(Br)c1ccccc12 (configuration not stated); 87.2 µM

* * *

TGI reference
Tested on: MCF7 breast
Assay protocol: NCI tumour cell line growth inhibition, 48 h
Value type: TGI

Cn1c(=S)sc2nc3ccccc3n2c1=S; 5.49 µM
[N-]=[N+]=NC1=C(c2ccccc2)C(=O)c2cccc3cccc1c23; > 100 µM
C=C1C(=O)OC2/C=C(\C)C3OC3/C=C(/C(=O)OC)C(OC(C)=O)C(OC(=O)C(C)(O)C(C)OC(C)=O)C12 (centres undefined); 2.67 µM
COC(=O)C1CCC(=O)N1C(c1ccc2c(c1)OCO2)c1ccc2c(c1)OCO2 (centres undefined); > 100 µM
CC(=O)O[C@H]1[C@@H](N2CCN(C)CC2)C[C@H]2[C@@H]3CC=C4C[C@@H](N5CCCC5)CC[C@]4(C)[C@H]3CC[C@@]21C; > 100 µM
N/N=C(\C(=O)Nc1ccc([N+](=O)[O-])cc1)C(C1=Nc2cc([N+](=O)[O-])ccc2NC1)[N+](=O)[O-] (centres undefined); > 100 µM
CC1Cc2cc(O)ccc2C2[C@@H]1C1CC[C@H](O)[C@@]1(C)C[C@@H]2O[N+](=O)[O-] (some centres undefined); 25.3 µM
CC([O-])C(=O)[O-].NCC1CCC1CN.[Pt+4] (centres undefined); > 10 µM
Cc1ccccc1/C=C1\CN(C(=O)OC(C)(C)C)C/C(=C\c2ccccc2C)C1=O; > 100 µM

* * *

System: SNB-19 CNS
Assay protocol: NCI tumour cell line growth inhibition, 48 h
Measured GI50 of individual entries
Value type: GI50

COc1ccc(/C=C/C(=O)c2ccc(Nc3ccnc4cc(Cl)ccc34)cc2)cc1; > 100 µM
CCCCCCCCCC(CCCC(O)CC(=O)O)OC1OC(COC2OC(C)C(O)C(O)C2O)C(O)C(O)C1OC1OC(CO)C(O)C(O)C1OC1OC(C)C(O)C(O)C1O (stereo not drawn); > 40 µM
CSc1nc2c(c(=O)[nH]1)C(c1ccc(Cl)cc1)C1=C(N2)/C(=C/c2ccc(Cl)cc2)CNC1 (stereo not drawn); 2.31 µM

* * *

Test system: DMS 273 small cell lung
Assay protocol: NCI tumour cell line growth inhibition, 48 h
Each item that follows carries a reported TGI.
Value type: TGI

O=C(CSc1nnc(-c2ccc(N=Cc3ccc(Cl)cc3)cc2)o1)Nc1cccc(Cl)c1; > 100 µM
Cc1cc(N=Nc2ccc(N=Nc3c(O)c(S(=O)(=O)O)cc4cc(S(=O)(=O)O)ccc34)cc2C)ccc1N=Nc1ccc2cc(S(=O)(=O)O)cc(S(=O)(=O)O)c2c1; > 100 µM
CC1=C2C(O)C(C(C)C(=O)NC(C)C)CCC2(C)C=CC1=O (centres undefined); > 100 µM
C=C1C(=O)OC2/C=C(\C)C3OC3/C=C(/C(=O)OC)C(OC(C)=O)C(OC(=O)C(C)(O)C(C)OC(C)=O)C12 (centres undefined); 10.6 µM
NC(N)=Nc1nc2ccccc2[nH]1; > 150 µg/mL
COc1cc(C=O)c(-c2cc3c(cc2C=O)OCO3)c(OC)c1OC; > 290 µM
O=C(O)C1OC(Oc2cc(O)c3c(=O)cc(-c4ccc(O)cc4)oc3c2)C(O)C(O)C1O (centres undefined); > 100 µM
CN(C)CCC1(C2=CCCC2)CC/C(=C\c2ccccc2)C1=O (centres undefined); 29 µM
CC1=C(c2cc(C(=O)Nc3nccs3)nc(NC#N)n2)Sc2ccccc2N1; > 100 µM

* * *

Test system: HCT-15 colon
Assay protocol: NCI tumour cell line growth inhibition, 48 h
Value type: TGI

COc1cc(C2C(C#N)=C(N)Oc3cc(O)ccc32)cc(OC)c1OC (stereo unspecified); > 100 µM
CC(=O)OC1COC(Nn2c(=O)[nH]c3ccccc3c2=O)C(OC(C)=O)C1OC(C)=O (stereo unspecified); > 100 µM
COc1cc2c(cc1O)C(C)Cc1cc3c(cc1N(C)CC2)OCO3 (stereo unspecified); 42.7 µM
CC(C)=CCC[C@H](C)[C@H]1CC[C@@H](C)c2cc(O)c(C)cc21; 35.1 µM
CN(C)/C(N)=N/C(N)=S; > 100 µM
COc1ccc(-c2coc3cc(OC)cc(O)c3c2=O)cc1; > 100 µM
CCN1CCN(C(=O)[C@]23CCC(C)(C)C[C@@H]2C2=CC[C@@H]4[C@@]5(C)C/C(=C/c6cccnc6)C(=O)C(C)(C)[C@@H]5CC[C@@]4(C)[C@]2(C)CC3)CC1; 2.71 µM
NC[C@@](O)(c1ccc(Cl)cc1)c1ccc(-c2cn[nH]c2)cc1; 2.7 µM
COC(=O)NN1C(=O)C(=P(c2ccccc2)(c2ccccc2)c2ccccc2)C(C(=O)OC)=C1C; > 100 µM
COc1ccc(CNc2nc(NCc3ccc(OC)cc3)c3n[nH]c(C(C)C)c3n2)cc1; 28.8 µM
Cn1cnc([N+](=O)[O-])c1Sc1nc(N)nc2c1ncn2Cc1ccccc1; 45.8 µM
O=c1cccc(C#CC#C/C=C/CO)o1; 5.15 µM
COc1cc(OC)nc(Nc2c(C#N)c3nc4ccccc4n3c3ccccc23)n1; > 100 µM
COC(=O)NN1C(C)=C(C(=O)OC)C2(CCOC2=O)C1(C)O (stereo unspecified); > 100 µM
C=C1N(C)c2ccc(Cl)cc2C1(C)C; > 100 µM
CC1Cc2cc(O)ccc2C2[C@@H]1C1CC[C@H](O)[C@@]1(C)C[C@@H]2O[N+](=O)[O-] (stereo partly specified); > 78.7 µM
